Species: Rattus norvegicus
method_notes: DrugMatrix - Regimen: Daily Repeat
Format: toxicity, organism-based, Sprague-Dawley
Design: regimen Daily Repeat, gender Male, age 6-8 weeks
run_parameters: in vivo, sc, 0 mg/kg, 72 h, tissue Plasma, route subcutaneous, dose level Control, time 3 day, […]
readout_kind: PHOSPHORUS

These recorded examples may help you get a feel for the data.
O=C(Nc1ccc(Br)cc1)c1cc(Br)cc(Br)c1O [TRIBROMSALAN] :: 12.95 mg/dL
CCN(CC)CCOCCC1=CCC2CC1C2(C)C (stereo not given) [MYRTECAINE] :: 11.05 mg/dL
CCC(=O)O[C@]1(C(=O)CCl)[C@@H](C)C[C@H]2[C@@H]3CCC4=CC(=O)C=C[C@]4(C)[C@@]3(F)[C@@H](O)C[C@@]21C [CLOBETASOL PROPIONATE] :: 12.95 mg/dL

Kindly give each listed record's PHOSPHORUS.
1. CC(C)(C)CC(C)(C)c1ccc(OCCOCC[N+](C)(C)Cc2ccccc2)cc1.[Cl-] [BENZETHONIUM CHLORIDE]
2. Oc1c(Cl)cc(Cl)c(Cl)c1Cc1c(O)c(Cl)cc(Cl)c1Cl [HEXACHLOROPHENE]

OUTPUT:
12.03 mg/dL
12.03 mg/dL

---

Species: Rattus norvegicus
method_notes: DrugMatrix - Regimen: Daily Repeat
Type: toxicity, organism-based, Sprague-Dawley
Set-up: regimen Daily Repeat, gender Male, age 6-8 weeks
run_parameters: in vivo, po, 0 mg/kg, 120 h, tissue Plasma, route oral GAVAGE, dose level Control, time 5 day, vehicle 100 % WATER
Answer each item with its documented CHLORIDE.
One number for each entry, in MEQ/L.

These recorded examples may help you get a feel for the data.
CN(C)CC[C@@H](c1ccc(Cl)cc1)c1ccccn1 :: 99.67
CN1[C@@H]2CC[C@H]1C[C@@H](OC(=O)C(CO)c1ccccc1)C2 (some centres undefined) :: 97

Kindly give each listed record's CHLORIDE.
1. Cn1c(=O)c2[nH]cnc2n(C)c1=O.O
2. CC(C)NCC(O)c1ccc(NS(C)(=O)=O)cc1 (centres undefined)

OUTPUT:
103.5
104.17

---

Organism: Rattus norvegicus
method_notes: DrugMatrix - Regimen: Daily Repeat
Assay type: toxicity, organism-based, Sprague-Dawley
Set-up: regimen Daily Repeat, gender Male, age 6-8 weeks
run_parameters: in vivo, po, 0 mg/kg, 120 h, tissue Plasma, route oral GAVAGE, dose level Control, time 5 day, […]
readout_kind: URIC ACID (mg/dL)
Give bare numbers, in mg/dL.

CO[C@H]1/C=C/O[C@@]2(C)Oc3c(C)c(O)c4c(O)c(c(/C=N/N5CCN(C6CCCC6)CC5)c(O)c4c3C2=O)NC(=O)/C(C)=C\C=C\[C@H](C)[C@H](O)[C@@H](C)[C@@H](O)[C@@H](C)[C@H](OC(C)=O)[C@@H]1C [RIFAPENTINE] :: 1.97

Kindly give each listed record's URIC ACID.
1. CC(C)(C)NC(=O)[C@H]1CC[C@H]2[C@@H]3CC[C@H]4NC(=O)C=C[C@]4(C)[C@H]3CC[C@]12C [FINASTERIDE]
2. COc1cc(N)c(Cl)cc1C(=O)NC1CCN(CCCOc2ccc(F)cc2)CC1OC (centres undefined) [CISAPRIDE]
3. Clc1ccc(COC(Cn2ccnc2)c2ccc(Cl)cc2Cl)cc1 (centres undefined) [ECONAZOLE]

OUTPUT:
0.63
0.85
0.63

Numbers sourced from ChEMBL document CHEMBL3885881.
